compounds and their reported growth inhibition
test.method.notes: NCI Yeast Anticancer Drug Screen. Data for the rad50 strain (AID 155);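 note: 0% = growth of vehicle-only cultures of the same strain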
study.conditions: S. cerevisiae rad50 strain growth inhibition; at 100.0 µM; active compounds read high
The panel holds about 79,000 compounds, 15% with a hit somewhere; the sample as a whole holds those more often.
Return type: number; implicit unit %.

Reference set (4 entries):
• CCOC(=O)c1cc(-c2ccc(Cl)cc2)c([N+](=O)[O-])n1C = 95
• N#CSc1ccc(S(N)(=O)=O)cc1 = 73
• N#CN1C2CCC1CC(=O)C2 = -24
• O=C(NCCCNCCCNC(=O)c1cc(-c2ccccc2)nc2ccccc12)c1cc(-c2ccccc2)nc2ccccc12 = 51

Need growth inhibition of CN(CCc1ccccn1)c1ccc2c(c1)Cc1ccccc1-2 , thanks.
67

Need growth inhibition of COc1ccc(C2c3cc4c(cc3OC(C)(O)C2C)OCO4)c(OC)c1 (stereo unspecified) , thanks.
98

* * *

test.method.notes: NCI Yeast Anticancer Drug Screen. Data for the rad14 strain (AID 159);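 note: 0% = growth of vehicle-treated control cultures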
study.conditions: S. cerevisiae rad14 strain growth inhibition; at 33.0 µM; active compounds read high
About 79,000 compounds went through this panel and 15% of them were active in at least one assay; those are over-represented in the sample as a whole.
Please mark Y if the recorded growth inhibition is equal to or greater than 20%, and N if it falls below.

- CCCCCCCCCC/C=C\C(=O)O: Y
- CC(=O)N/N=C/C(C)(C)C(C)(C)/C=N/NC(C)=O: Y
- CC(C)/C(Cl)=N\OC(=O)Nc1cccc(Cl)c1: N

Please indicate if the recorded growth inhibition for COc1cc(C2c3cc4c(cc3OC(Nc3ccccc3)C2C)OCO4)cc(OC)c1O (stereo not drawn) meets or exceeds 20%.
N

Please indicate if the recorded growth inhibition for COc1ccc(/C=C/C(=O)C(C)(C)Br)cc1 meets or exceeds 20%.
Y

Please indicate if the recorded growth inhibition for COC(=O)c1ccc(NCC2=CC(=O)C=CC2=O)cc1O meets or exceeds 20%.
Y

Please indicate if the recorded growth inhibition for O=C1OC(=O)C2CCCC3CCCC1C32 (stereo not drawn) meets or exceeds 20%.
Y

Please indicate if the recorded growth inhibition for COc1ccc(O)c(/C=N\Nc2ccccc2)c1 meets or exceeds 20%.
Y

* * *

test.method.notes: NCI Yeast Anticancer Drug Screen. Data for the sgs1 mgt1 strain (AID 161);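 note: 0% = growth of cultures given vehicle only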
study.conditions: S. cerevisiae sgs1 mgt1 strain, at 50.0 µM (retest, dose inferred, filed as 5.0)
This is part of a sample that, as a whole, favours compounds with a hit. Of some 79,000 tested, about 15% had one in any assay. Activity calls are given as the source filed them. Rule as the data show it: active = growth inhibition above about 70%; inactive = the rest.
// one of t (active), f (inactive), no free text

Solved cases below.
* C/C(=N\O)C1CC2C=C(C#N)C1N(Cc1ccccc1)C2 (centres undefined) | f
* NC(=S)N/N=C\c1nccc2ccccc12 | t
* O=C1Nc2ccccc2/C1=C/COc1ccccc1 | t

Outcome? Clc1ccccc1C1OC1c1ccccc1Cl (centres undefined)
t

Outcome? CC1OCC2OC(C)OC(C3C4=C(CC(C)(C)CC4=O)OC4=C3C(=O)CC(C)(C)C4)C2O1 (centres undefined)
f

Outcome? CCC#CCCCOC(=O)c1cc([N+](=O)[O-])cc([N+](=O)[O-])c1
t

Outcome? O=C1C(=O)c2ccccc2C=C1[N+](=O)[O-]
t

Outcome? CCCCCCCCNC(=O)C1=C(C)NC(C)=C(C(=O)NCCCCCCCC)C1
f
